// data source = the supplement of paper PMC9170038

In this section we review reported apparent KD of MS2 coat protein values for a set of sequences.
- Test system: MS2 coat protein
- MEASUREMENT PROTOCOL: apparent KD of MS2 coat protein; higher = weaker reporter binding
- CONDITION LABEL: Eterna round: R107; input ligand: theophylline 20 uM
// note: answer is a bare numeric in nM

// solved cases for apparent KD of MS2 coat protein follow
| QUERY SEQUENCE | MEASUREMENT UNIT | apparent KD of MS2 coat protein |
| --- | --- | --- |
| GGGUCCGUCGGAAGGAGCGACAUGAGGAUCACCCAUGUCUCCCGUUAUGGGAGUUCUUUAGGUCAGGUAGGUCGCCGGCGGGUCC [#1 Exclusion - Arginine B Attempt #13 (Inspired by Omei)] | nM | 196 |
| UAGCAUAGUACGGCCGCCACUCCUGGUUCCCGGCCGUGUGUAAGACAUGAGGAUCACCCAUGUAGGAGGACCGGGUAUCGCUUGC [theeternabot_sameState_MS2_Trp_B_22] | nM | 20.2 |

What value of apparent KD of MS2 coat protein has been reported for the following sequence? UGUAUGUGAUCUGAUACCAGCUAGCGGAAACGCAAGCUUGAGGAUCACCCAAGUGGAAUAAGCCCUUGGCAGCAGAUCGCAUACU [Denovo 5 #StaticStem #AlternativeMS2]
197
